ASSAY EXPLANATION: Iron-chelating activity at 50 uM by Chrome Azurol S […] assay
Assay type: physicochemical
PROPERTY: Activity

{"columns": ["COMPOUND SMILES", "DATA VALUE"],
 "data": [
  ["CCCCCCCCCC(=O)C1=C(O)COC1=O", "Not Active"],
  ["CCCCCCCCCCCC(=O)C1=C(O)COC1=O", "Not Active"],
  ["CCCCCC(=O)C1=C(O)COC1=O", "Not Active"]
]}

###

A collection of compounds and their measured MIC
Tested on: Staphylococcus aureus
ASSAY EXPLANATION: Antimicrobial activity against Staphylococcus aureus RN6390B assessed as growth inhibition after 18 hrs by spectrophotometry
Assay type: functional

{"columns": ["COMPOUND SMILES", "MIC / µM"],
 "data": [
  ["CCCCCCCCCCCC(=O)C1=C(O)COC1=O", 25],
  ["CCCCCCCCCCC/C(O)=C1/C(=O)N[C@@H](CCO)C1=O", 25],
  ["CCCCC/C=C/CCC(=O)C1=C(O)COC1=O", 50],
  ["CCCCCCCCC/C(O)=C1\\C(=O)CNC1=O", 100],
  ["CCCCCCCCC/C(O)=C1/C(=O)N[C@@H](CCO)C1=O", 100],
  ["CCCCCCCCCC/C(O)=C1/C(=O)N[C@@H](CCO)C1=O", 50],
  ["CCCCCCCCCC(=O)C1=C(O)COC1=O", 50],
  ["CCCCCCCCC/C(O)=C1/C(=O)N[C@@H](C)C1=O", 100],
  ["CCCCCCCCCC(=O)CC(=O)N[C@@H]1CCOC1=O", 100],
  ["CCCCCCCCCCCCC/C(O)=C1/C(=O)N[C@@H](CCO)C1=O", 12.5]
]}
